tested on: rumen inoculum; experiment: Rumen in vitro model; parameters: species or system steer; conditions: 5 ppm
# IBU values compiled below

Compound | IBU / % OF CONTROL
CCCCCCCCCC(=O)N[C@H]1[C@H](Oc2c3cc4cc2Oc2c(Cl)cc(cc2Cl)[C@@H](O)[C@@H]2NC(=O)[C@H](NC(=O)[C@@H]4NC(=O)[C@H]4NC(=O)[C@H](NC(=O)[C@H](NC)c5ccc(O)c(c5)Oc5cc(O)c(Cl)c4c5)[C@H](O)c4ccc(c(Cl)c4)O3)c3ccc(O)c(c3)-c3c(O[C@H]4O[C@H](CO)[C@@H](O)[C@H](O)[C@@H]4O)cc(O)cc3[C@@H](C(=O)O)NC2=O)O[C@H](C(=O)O)[C@@H](O)[C@@H]1O [AAD 216A] | 169
CN[C@H]1C(=O)N[C@H]2C(=O)N[C@H](C(=O)N[C@H]3C(=O)N[C@H]4C(=O)N[C@H](C(=O)N[C@H](C(=O)O)c5cc(O)cc(O[C@H]6O[C@H](CO)[C@@H](O)[C@H](O)[C@@H]6O)c5-c5cc4ccc5O)[C@H](O)c4cc(Cl)c(c(Cl)c4)Oc4cc3cc(c4O[C@@H]3O[C@H](C(=O)O)[C@@H](O)[C@H](O)[C@H]3NC(=O)CCCCCCCC(C)C)Oc3ccc(cc3Cl)[C@H]2O)c2cc(cc(O)c2Cl)Oc2cc1ccc2O [AAD 216B] | 138
CN[C@H]1C(=O)N[C@H]2C(=O)N[C@H](C(=O)N[C@H]3C(=O)N[C@H]4C(=O)N[C@H](C(=O)N[C@H](C(=O)O)c5cc(O)cc(O[C@H]6O[C@H](CO)[C@@H](O)[C@H](O)[C@@H]6O)c5-c5cc4ccc5O)[C@H](O)c4cc(Cl)c(c(Cl)c4)Oc4cc3cc(c4O[C@@H]3O[C@H](C(=O)O)[C@@H](O)[C@H](O)[C@H]3NC(=O)CCCCCCCCC(C)C)Oc3ccc(cc3Cl)[C@H]2O)c2cc(cc(O)c2Cl)Oc2cc1ccc2O | 156
CN[C@H](CC(C)C)C(=O)N[C@H]1C(=O)N[C@@H](CC(N)=O)C(=O)N[C@H]2C(=O)N[C@H]3C(=O)N[C@H](C(=O)N[C@H](C(=O)O)c4cc(O)cc(O)c4-c4cc3ccc4O)[C@H](O)c3ccc(c(Cl)c3)Oc3cc2cc(c3O[C@@H]2O[C@H](CO)[C@@H](O)[C@H](O)[C@H]2O[C@H]2C[C@](C)(N)[C@H](O)[C@H](C)O2)Oc2ccc(cc2Cl)[C@H]1O | 137
